- protocol: Cmax in human plasma at 1 mg administered as single dose
- Format: ADME, organism-based
- Design: dose 1 mg
quantity-measured: Cmax (ng/mL)
Answers are plain numbers, in ng/mL.

Exercise: Can you share its Cmax? I mean this compound: `Cc1ccc(CNC(=O)c2nn(-c3ccc(F)cc3)c(CC[C@@H](O)C[C@@H](O)CC(=O)O)c2C(C)C)cc1`
Solution: 33.5

* * *

- protocol: Terminal half life in human plasma at 240 mg administered as single dose
- Format: ADME, cell-free
- condition-summary: read-out: beta t1/2 (converted)
quantity-measured: half-life (h)
Answers are plain numbers, in h.

Exercise: Entry `O=C([O-])C[C@H](O)C[C@H](O)CCn1c(-c2ccc(F)cc2)nc(C(=O)NCc2cccc(F)c2)c1C1CC1.[Na+]` has what half-life?
Solution: 4.06

* * *

- protocol: AUC (0 to infinity) in human plasma at 20 mg administered as single dose
- Format: ADME, cell-free
- Design: dose 20 mg, time infinity
quantity-measured: AUC(0-inf) (ng·h/mL)
One number for each entry, in ng·h/mL.

Exercise: Requested read-out: AUC(0-inf). Entry: `Cc1ccc(CNC(=O)c2nn(-c3ccc(F)cc3)c(CC[C@@H](O)C[C@@H](O)CC(=O)O)c2C(C)C)cc1`
Solution: 1930

* * *

- tested-on: OATP1B3 (Homo sapiens)
- Sequence (Q9NPD5 whole entry): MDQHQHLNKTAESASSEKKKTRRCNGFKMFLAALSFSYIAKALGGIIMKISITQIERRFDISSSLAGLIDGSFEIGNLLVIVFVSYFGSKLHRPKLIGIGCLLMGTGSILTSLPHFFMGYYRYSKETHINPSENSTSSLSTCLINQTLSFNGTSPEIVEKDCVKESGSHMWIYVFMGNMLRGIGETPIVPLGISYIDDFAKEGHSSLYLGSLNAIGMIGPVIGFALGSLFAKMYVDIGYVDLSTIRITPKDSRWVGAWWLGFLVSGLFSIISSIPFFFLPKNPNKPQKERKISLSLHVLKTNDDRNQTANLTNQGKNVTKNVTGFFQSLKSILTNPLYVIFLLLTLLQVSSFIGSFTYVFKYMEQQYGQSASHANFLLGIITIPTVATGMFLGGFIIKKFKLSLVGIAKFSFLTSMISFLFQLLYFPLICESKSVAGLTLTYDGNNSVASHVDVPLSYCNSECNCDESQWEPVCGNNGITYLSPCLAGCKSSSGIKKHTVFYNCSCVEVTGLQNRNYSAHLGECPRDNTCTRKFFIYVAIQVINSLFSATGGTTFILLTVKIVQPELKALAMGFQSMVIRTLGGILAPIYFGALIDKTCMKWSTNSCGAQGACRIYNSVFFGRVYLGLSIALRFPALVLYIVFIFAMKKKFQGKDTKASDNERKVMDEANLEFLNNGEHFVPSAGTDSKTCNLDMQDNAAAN
- protocol: Drug uptake by human hepatic OATP1B3 transporter expressed in HEK293 cells at 10 uM relative to wild-type HEK293 cells
- Type: ADME, cell-based
- condition-summary: HEK293 cells expressing OATP1B3, read-out: FC
quantity-measured: uptake ratio at 10 µM
Give bare numbers.

| molecule | uptake ratio at 10 µM |
| --- | --- |
| CC(C)c1nc(N(C)S(C)(=O)=O)nc(-c2ccc(F)cc2)c1/C=C/[C@@H](O)C[C@@H](O)CC(=O)O [ROSUVASTATIN] | 11.1 |

Please report uptake ratio at 10 µM for every entry that follows.
1. Cc1ccc(CNC(=O)c2nn(-c3ccc(F)cc3)c(CC[C@@H](O)C[C@@H](O)CC(=O)O)c2C(C)C)cc1
2. CC[C@H](C)C(=O)O[C@H]1C[C@H](O)C=C2C=C[C@H](C)[C@H](CC[C@@H](O)C[C@@H](O)CC(=O)O)[C@H]21 [PRAVASTATIN]
3. O=C([O-])C[C@H](O)C[C@H](O)CCn1c(-c2ccc(F)cc2)nc(C(=O)NCc2cccc(F)c2)c1C1CC1.[Na+]
4. Cc1ncc2n1-c1ccc(Cl)cc1C(c1ccccc1F)=NC2 [MIDAZOLAM]

Solution:
1. 5
2. 32.8
3. 36.4
4. 1.1

* * *

- protocol: Oral bioavailability in rat at 10 mg/kg
- Assay type: ADME, organism-based
- condition-summary: in vivo
So I've got a bunch of molecules here, and I need their bioavailability values.
Answers are plain numbers, in %.

| smiles-input | bioavailability [%] |
| --- | --- |
| O=C([O-])C[C@H](O)C[C@H](O)CCn1c(-c2ccc(F)cc2)nc(C(=O)NCc2cccc(F)c2)c1C1CC1.[Na+] | 0.3 |

Proceeding to the next molecule to report its bioavailability.
Exercise: What does the data say about its bioavailability? Entry: `Cc1ccc(CNC(=O)c2nn(-c3ccc(F)cc3)c(CC[C@@H](O)C[C@@H](O)CC(=O)O)c2C(C)C)cc1`
Solution: 6
